# Assay target: T1, human GM-CSFRα, full length on cells (human, UniProt P15509 23-400)
# T1 sequence: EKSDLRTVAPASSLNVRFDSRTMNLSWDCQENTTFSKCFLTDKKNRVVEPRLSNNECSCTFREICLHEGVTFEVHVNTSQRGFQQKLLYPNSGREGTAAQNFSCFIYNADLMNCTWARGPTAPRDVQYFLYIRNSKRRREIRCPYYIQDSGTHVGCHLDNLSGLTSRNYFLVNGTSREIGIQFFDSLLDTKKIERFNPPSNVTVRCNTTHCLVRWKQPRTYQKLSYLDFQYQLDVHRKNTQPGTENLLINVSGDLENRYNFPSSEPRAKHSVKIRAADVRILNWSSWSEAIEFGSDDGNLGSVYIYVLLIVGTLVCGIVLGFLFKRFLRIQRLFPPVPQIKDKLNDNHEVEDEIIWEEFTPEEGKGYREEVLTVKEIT
# Method description: cell-based or functional assay
Label Fulfilled when IC50, TF-1 cell proliferation is strictly below 0.1 µg/mL; otherwise label Not fulfilled.

Binder	Classification
E35-scFv LN93S (scFv, V domains shown) VH: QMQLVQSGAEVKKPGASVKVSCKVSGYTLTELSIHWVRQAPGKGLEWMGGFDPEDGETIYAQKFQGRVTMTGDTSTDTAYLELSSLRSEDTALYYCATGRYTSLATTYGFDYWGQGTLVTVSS VL: EIVMTQSPATLSLSPGERATLSCRASQSVSSYLAWYQQKPGQAPRLLIYGASSRATGIPDRFSGSGSGTDFTLTISRLEPEDFAVYYCQQYDSWPYTFGQGTKLEIK	Not fulfilled
E35-scFv HE31V (scFv, V domains shown) VH: QMQLVQSGAEVKKPGASVKVSCKVSGYTLTVLSIHWVRQAPGKGLEWMGGFDPEDGETIYAQKFQGRVTMTGDTSTDTAYLELSSLRSEDTALYYCATGRYTSLATTYGFDYWGQGTLVTVSS VL: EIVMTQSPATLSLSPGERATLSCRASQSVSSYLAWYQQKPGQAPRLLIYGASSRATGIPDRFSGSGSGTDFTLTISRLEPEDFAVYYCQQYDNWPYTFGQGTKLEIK	Not fulfilled
E35-scFv LN93R (scFv, V domains shown) VH: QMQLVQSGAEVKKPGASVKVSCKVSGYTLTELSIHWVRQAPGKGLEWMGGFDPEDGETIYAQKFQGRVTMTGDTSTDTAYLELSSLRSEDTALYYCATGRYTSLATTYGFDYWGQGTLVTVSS VL: EIVMTQSPATLSLSPGERATLSCRASQSVSSYLAWYQQKPGQAPRLLIYGASSRATGIPDRFSGSGSGTDFTLTISRLEPEDFAVYYCQQYDRWPYTFGQGTKLEIK	Not fulfilled
E35-scFv LD92W (scFv, V domains shown) VH: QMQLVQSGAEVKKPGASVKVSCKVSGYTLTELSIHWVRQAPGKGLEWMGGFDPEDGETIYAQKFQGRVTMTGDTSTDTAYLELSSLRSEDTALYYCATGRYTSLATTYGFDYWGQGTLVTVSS VL: EIVMTQSPATLSLSPGERATLSCRASQSVSSYLAWYQQKPGQAPRLLIYGASSRATGIPDRFSGSGSGTDFTLTISRLEPEDFAVYYCQQYWNWPYTFGQGTKLEIK	Not fulfilled
E35-scFv LN93P (scFv, V domains shown) VH: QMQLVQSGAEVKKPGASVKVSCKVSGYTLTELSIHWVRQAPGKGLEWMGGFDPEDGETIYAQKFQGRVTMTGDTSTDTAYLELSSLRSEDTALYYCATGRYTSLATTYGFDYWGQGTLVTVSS VL: EIVMTQSPATLSLSPGERATLSCRASQSVSSYLAWYQQKPGQAPRLLIYGASSRATGIPDRFSGSGSGTDFTLTISRLEPEDFAVYYCQQYDPWPYTFGQGTKLEIK	Not fulfilled
E35-scFv LS31A (scFv, V domains shown) VH: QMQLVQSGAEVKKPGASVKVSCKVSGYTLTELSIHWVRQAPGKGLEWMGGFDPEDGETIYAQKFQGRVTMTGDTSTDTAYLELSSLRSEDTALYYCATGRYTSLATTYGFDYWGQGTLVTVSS VL: EIVMTQSPATLSLSPGERATLSCRASQSVSAYLAWYQQKPGQAPRLLIYGASSRATGIPDRFSGSGSGTDFTLTISRLEPEDFAVYYCQQYDNWPYTFGQGTKLEIK	Fulfilled
E35-scFv LS28V (scFv, V domains shown) VH: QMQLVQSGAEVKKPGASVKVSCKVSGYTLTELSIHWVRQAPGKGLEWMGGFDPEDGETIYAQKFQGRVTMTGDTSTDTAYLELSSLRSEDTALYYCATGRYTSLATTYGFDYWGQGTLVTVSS VL: EIVMTQSPATLSLSPGERATLSCRASQVVSSYLAWYQQKPGQAPRLLIYGASSRATGIPDRFSGSGSGTDFTLTISRLEPEDFAVYYCQQYDNWPYTFGQGTKLEIK	Not fulfilled
E35-scFv HT30Y (scFv, V domains shown) VH: QMQLVQSGAEVKKPGASVKVSCKVSGYTLYELSIHWVRQAPGKGLEWMGGFDPEDGETIYAQKFQGRVTMTGDTSTDTAYLELSSLRSEDTALYYCATGRYTSLATTYGFDYWGQGTLVTVSS VL: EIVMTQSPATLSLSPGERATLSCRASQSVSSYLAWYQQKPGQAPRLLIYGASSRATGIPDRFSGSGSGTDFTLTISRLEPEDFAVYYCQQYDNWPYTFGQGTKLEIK	Not fulfilled
E35-scFv HT28P (scFv, V domains shown) VH: QMQLVQSGAEVKKPGASVKVSCKVSGYPLTELSIHWVRQAPGKGLEWMGGFDPEDGETIYAQKFQGRVTMTGDTSTDTAYLELSSLRSEDTALYYCATGRYTSLATTYGFDYWGQGTLVTVSS VL: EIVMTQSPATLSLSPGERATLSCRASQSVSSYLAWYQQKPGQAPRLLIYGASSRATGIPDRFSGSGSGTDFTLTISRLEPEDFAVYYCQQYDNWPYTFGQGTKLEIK	Fulfilled
E35-scFv LQ27C (scFv, V domains shown) VH: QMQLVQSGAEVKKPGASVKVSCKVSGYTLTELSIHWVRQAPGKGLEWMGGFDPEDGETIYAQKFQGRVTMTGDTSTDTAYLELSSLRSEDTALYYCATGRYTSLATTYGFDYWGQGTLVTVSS VL: EIVMTQSPATLSLSPGERATLSCRASCSVSSYLAWYQQKPGQAPRLLIYGASSRATGIPDRFSGSGSGTDFTLTISRLEPEDFAVYYCQQYDNWPYTFGQGTKLEIK	Not fulfilled
